Consider the following compounds; for each one, report its pIC50.
biological target: (Homo sapiens, UniProt P08069); construct: human IGF1R kinase domain residues M954-C1367; made in house; host or cells: baculovirus expression (insect cells); assay: IGF1R kinase assay (LCCA), IGF 0P; assay type: biochemical; settings: IGF1R kinase LCCA assay
Sequence (P08069 954-1367): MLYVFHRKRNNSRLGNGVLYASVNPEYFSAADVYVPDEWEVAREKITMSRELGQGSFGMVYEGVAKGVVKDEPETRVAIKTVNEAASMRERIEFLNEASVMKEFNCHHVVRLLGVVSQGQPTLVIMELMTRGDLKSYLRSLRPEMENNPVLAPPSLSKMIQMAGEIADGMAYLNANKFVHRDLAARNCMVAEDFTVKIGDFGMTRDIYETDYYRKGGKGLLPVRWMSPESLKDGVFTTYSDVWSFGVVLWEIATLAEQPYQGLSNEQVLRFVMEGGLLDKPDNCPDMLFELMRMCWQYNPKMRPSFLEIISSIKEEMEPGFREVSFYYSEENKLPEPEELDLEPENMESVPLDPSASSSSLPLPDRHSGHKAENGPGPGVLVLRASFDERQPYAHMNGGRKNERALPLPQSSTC
pIC50: −log10 of the molar value.

[[record]]
substance_smiles = "Cc1cc(Nc2cc(C3CC3)n[nH]2)nc(Nc2ccc(CCN3CCCC3)cc2)n1"
endpoint_label = "pIC50"
value_reported = "5.30 to 6.30"


For each of the compounds below, state pIC50.
1. Cc1cc(Nc2cc(C3CC3)[nH]n2)nc(NCc2cc(-c3ccccc3Br)no2)n1
2. Cc1cc(Nc2nc(NCc3cc(-c4ccccc4)no3)ncc2Br)[nH]n1

1. 6.30 to 7.30
2. 5.30 to 6.30

For each of the compounds below, state pIC50.
1. Cc1cc(Nc2cc(C(C)C)[nH]n2)nc(NCc2cc(C(C)C)no2)n1
2. Brc1ccccc1Nc1ncc(Br)c(Nc2cc(C3CC3)n[nH]2)n1
3. O=C(Nc1ccccc1)c1nc(Nc2ccccc2Cl)nc(Nc2cc(C3CC3)n[nH]2)c1[N+](=O)[O-]

["5.30 to 6.30", "6.30 to 7.30", "5.30 to 6.30"]

For each of the compounds below, state pIC50.
1. NC(=O)c1c[nH]nc1Nc1nc(Nc2ccccc2Cl)ncc1Br
2. Cc1c(Br)cccc1Nc1ncc(Br)c(Nc2cc(C3CC3)[nH]n2)n1

1. < 5.30
2. 6.30 to 7.30
